Each recorded value in this set is attributed to patent US8557290B2.

Assay: in vitro
Conditions: rat
result_type: viability at 4 days, 1.72 μM
// return the numeric value with its unit appended

The value of viability at 4 days, 1.72 μM measured for the molecule COc1cccc2c1C(=O)c1c(O)c3c(c(O)c1C2=O)C[C@@](O)(C(=O)CO)C[C@@H]3O[C@H]1C[C@H](N)[C@H](O)[C@H](C)O1 [free doxorubicin, Doxorubicin] turned out to be 79.6%
